All figures here come from PubChem BioAssay (NCI).

system: SNB-75 CNS; experiment: NCI tumour cell line growth inhibition, 48 h
TGI reference
MEASURED_PARAMETER: TGI

COMPOUND	MEASURED_PARAMETER	READOUT_VALUE
CC(C)CC(NP(=O)(O)OC1OC(C)C(O)C(O)C1O)C(=O)NC(Cc1c[nH]c2ccccc12)C(=O)O (configuration not stated)	TGI	> 100 µM
O=[N+]([O-])c1ccc(C2=NOC(c3ccc(Cl)cc3)N2C23CC4CC(CC(C4)C2)C3)cc1 (configuration not stated)	TGI	> 100 µM
O=C1c2ccccc2C(=O)c2c1ccc1c(=O)n(-c3ccccc3C(F)(F)F)nnc21	TGI	15.5 µM
Nc1ncnc2c1ncn2-c1ccc([N+](=O)[O-])cn1	TGI	> 100 µM
O=C(/C=C1\N=C(c2ccccc2)N(c2nc3c(Cl)cc(Cl)cc3s2)C1=O)/C=C/c1ccccc1	TGI	> 100 µM
COc1cc(C(c2cccc3ccccc23)N2C(=O)CCC2C(=O)O)cc(OC)c1OC (configuration not stated)	TGI	> 100 µM
CC(=O)C1(C)CC(C#N)(C#N)C(C#N)=C1N (configuration not stated)	TGI	> 100 µM
COc1ccccc1/C=C/C1=C(C)CCC(c2ccccc2OC)C1C (configuration not stated)	TGI	76.5 µM
OCc1ccc(N2CCc3cc(F)ccc3C2)cc1Cl	TGI	28.6 µM
COC1=C(OC)C(=O)C(Sc2ccc3ccccc3c2)=CC1=O	TGI	29.8 µM
O=C(O)C1CCCCN1C(=O)Cc1c[nH]c2ccccc12 (configuration not stated)	TGI	> 100 µM
CCOC(=O)c1nc2ccccc2nc1Nc1ccc(OC)cc1	TGI	93.2 µM
CCOC(=O)N(C)C(=C(F)F)C(F)(F)F	TGI	93.1 µM
CC1C(=O)c2cc3c(cc2CCN(C)Cc2c1ccc1c2OCO1)OCO3 (configuration not stated)	TGI	> 75 µg/mL
C#CCNC(=O)NCCCCC(NC(C)=O)C(=O)NCc1ccccc1 (configuration not stated)	TGI	> 100 µM
CN=C(N)N=Nc1c(O)[nH]c2ccccc12	TGI	> 100 µM
CCCC(C)NC(=O)c1ccc(N(C)Cc2cnc3nc(N)nc(N)c3n2)cc1 (configuration not stated)	TGI	56.6 µM
CN1N=C(c2ccccc2)C(C(c2ccccc2[N+](=O)[O-])C2C(=O)N(C)N=C2c2ccccc2)C1=O (configuration not stated)	TGI	> 100 µM
COc1cc(/C=C/c2ccc(Br)cc2)cc(OC)c1OC	TGI	39.5 µM
O=C(Cc1csc2nc(-c3ccc(Cl)cc3)cn12)N/N=C/c1ccccc1O	TGI	> 100 µM
CCCCCCSCC/C(C)=N\OC	TGI	> 100 µM
CCN(CC)c1ccc2cc(C(=O)NCc3ccccc3)c(=N)oc2c1	TGI	> 100 µM
NC1=NC(=O)/C(=C/c2ccc3ncccc3c2)S1	TGI	> 25 µM
Cc1nc(-c2cnc(NC(C)C)n(C)c2=O)ccc1Oc1ccnc(-c2cnn(C)c2)c1	TGI	47.7 µM
CC1CCC(=O)C(C(O)CC2CC(=O)N(c3ccccc3)C(=O)C2)C1 (configuration not stated)	TGI	> 100 µM
OCCCSCCO	TGI	> 100 µM
C[C@@H]1CCC2C(C)(C)C(/C=C\C=O)C3(C)OC213 (some centres not stated)	TGI	> 100 µM
CCN(CC)CCC1(C2CCCCC2)CCC(=O)NC1=O (configuration not stated)	TGI	> 100 µM
COC(=O)C1=C(OC(=O)/C=C/c2ccc(Cl)cc2)C(C(=O)OC)[C@]2(O)[C@@H](C(=O)OC)[C@H]1C[C@@H](c1ccccc1)[C@@H]2C(=O)OC (some centres not stated)	TGI	> 100 µM
CC12C(=C(C#N)C(=N)N1c1ccc(Cl)c(Cl)c1)C=C(O)CC2SCCS(=O)(=O)O (configuration not stated)	TGI	> 100 µM
CSC1=C(C(=O)Nc2ccc(C)cc2)C(N)=NC1=O	TGI	> 100 µM
CC1(C)S[C@H](CN)N[C@H]1C(=O)OC(c1ccccc1)c1ccccc1	TGI	> 100 µM
